assay: Antiproliferative activity against mouse B16-F1 cells after 48 hrs by SRB assay; format: functional, cell-based; settings: B16-F1, 48 h
assay metric: IC50

CCCCCCCCCCCCCCCCNC(=O)[C@@H]1CSC(c2ccc(NS(C)(=O)=O)cc2)N1 (mixture of isomers) | 114 µM
CCCCCCCCCCCCCCCCNC(=O)[C@@H]1CSC(c2ccc(N(C)C)cc2)N1 (mixture of isomers) | 6.7 µM
CCCCCCCCC/C=C/CCCCCCCNC(=O)[C@@H]1CSC(c2ccc(OC)c(OC)c2)N1 (mixture of isomers) | 3.2 µM
CNC(=O)c1cc(Oc2ccc(NC(=O)Nc3ccc(Cl)c(C(F)(F)F)c3)cc2)ccn1 [SORAFENIB] | 4.9 µM
CC(=O)Nc1ccc(C2N[C@H](C(=O)Nc3nc4ccccc4s3)CS2)cc1 (mixture of isomers) | 55.3 µM

Would you kindly share the measured IC50 for CC(=O)Nc1ccc(C2N[C@H](C(=O)NC34CC5CC(CC(C5)C3)C4)CS2)cc1 (mixture of isomers) ?
96.5 µM

Would you kindly share the measured IC50 for CCCCCCCCCCCCCCCCNC(=O)[C@@H]1CSC(c2cc(OC)c(OC)c(OC)c2)N1 (mixture of isomers) ?
1.6 µM

Would you kindly share the measured IC50 for CCCCCCCCCCCCCCCCNC[C@@H]1CSC(c2ccccc2)N1 (mixture of isomers) ?
4.7 µM

Would you kindly share the measured IC50 for CCCCCCCCCCCCCCCCCCNC(=O)[C@@H]1CSC(c2cc(OC)c(OC)c(OC)c2)N1 (mixture of isomers) ?
5.9 µM
